Reference source: patent US20230233569A1

The compounds listed here are annotated with their IC50.
molecular target: KRAS G13D (Homo sapiens, UniProt P01116+P62937, G13D); assay: Ras-Raf disruption / FRET / MOA assay (BRAF RBD); format: biochemical; conditions: KRAS G13D FRET data IC50, Ras-Raf disruption, with Cyclophilin A
Sequence (P01116 1-169 isoform P01116-2 G13D limits assumed, one chain of several): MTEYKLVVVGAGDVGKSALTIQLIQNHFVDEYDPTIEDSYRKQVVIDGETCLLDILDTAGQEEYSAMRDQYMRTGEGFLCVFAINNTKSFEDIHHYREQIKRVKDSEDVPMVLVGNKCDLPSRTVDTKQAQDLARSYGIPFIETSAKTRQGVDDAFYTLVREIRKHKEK

# COMPOUND, IC50
measured = [
    ("CCn1c(-c2cccnc2[C@H](C)OC)c2c3cc(ccc31)-c1cc(O)cc(c1)C[C@H](NC(=O)[C@H](C(C)C)N(C)C(=O)CN(C)C(=O)[C@H]1N[C@H]1C(C)C)C(=O)N1CCC[C@H](N1)C(=O)OCC(C)(C)C2", "10 to 100 nM"),
    ("CCn1c(-c2cccnc2[C@H](C)OC)c2c3cc(ccc31)-c1cc(O)cc(c1)C[C@H](NC(=O)[C@H](C(C)C)N(C)C(=O)CNC(=O)[C@@H]1CN1)C(=O)N1CCC[C@H](N1)C(=O)OCC(C)(C)C2", "100 to 1000 nM"),
    ("CCn1c(-c2cccnc2[C@H](C)OC)c2c3cc(ccc31)-c1cc(O)cc(c1)C[C@H](NC(=O)[C@H](C(C)C)N(C)C(=O)CN(C)C(=O)[C@@]1(C)CN1)C(=O)N1CCC[C@H](N1)C(=O)OCC(C)(C)C2", "10 to 100 nM"),
    ("CCn1c(-c2cccnc2[C@H](C)OC)c2c3cc(ccc31)-c1cc(O)cc(c1)C[C@H](NC(=O)[C@H](C(C)C)N(C)C(=O)CN(C)C(=O)[C@@H]1CN1CCCC#N)C(=O)N1CCC[C@H](N1)C(=O)OCC(C)(C)C2 (stereo partly shown)", "10 to 100 nM"),
]

----------
molecular target: KRAS G12S (Homo sapiens, UniProt P01116+P62937, G12S); assay: Ras-Raf disruption / FRET / MOA assay (BRAF RBD); format: biochemical; conditions: KRAS G12S FRET data IC50, Ras-Raf disruption, with Cyclophilin A
Sequence (P01116 1-169 isoform P01116-2 G12S limits assumed): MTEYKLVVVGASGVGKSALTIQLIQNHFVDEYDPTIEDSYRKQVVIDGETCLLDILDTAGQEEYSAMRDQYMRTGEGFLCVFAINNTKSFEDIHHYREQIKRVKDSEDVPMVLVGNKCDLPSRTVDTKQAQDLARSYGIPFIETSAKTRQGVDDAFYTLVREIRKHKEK
Sequence (P62937 whole entry): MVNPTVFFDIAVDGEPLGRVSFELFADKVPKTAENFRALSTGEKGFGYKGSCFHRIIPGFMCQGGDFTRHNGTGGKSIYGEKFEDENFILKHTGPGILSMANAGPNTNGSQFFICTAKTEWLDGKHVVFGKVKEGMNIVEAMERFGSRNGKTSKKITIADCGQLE
The compounds listed here are annotated with their IC50.

# COMPOUND, ASSAY SYSTEM, IC50
records = [
    ("CCn1c(-c2cccnc2[C@H](C)OC)c2c3cc(ccc31)-c1cc(O)cc(c1)C[C@H](NC(=O)[C@H](C(C)C)N(C)C(=O)CN(C)C(=O)[C@H]1CN1C(C)C)C(=O)N1CCC[C@H](N1)C(=O)OCC(C)(C)C2 (stereo partly drawn) [Example 142]", "KRAS G12S (Homo sapiens, UniProt P01116+P62937, G12S)", "0.01 to 0.1 µM"),
    ("CCn1c(-c2cccnc2[C@H](C)OC)c2c3cc(ccc31)-c1cc(O)cc(c1)C[C@H](NC(=O)[C@H](C(C)C)N(C)C(=O)CN(C)C(=O)[C@H]1CN1CCCOC(C)=O)C(=O)N1CCC[C@H](N1)C(=O)OCC(C)(C)C2 (stereo partly drawn) [Example 266]", "KRAS G12S (Homo sapiens, UniProt P01116+P62937, G12S)", "0.01 to 0.1 µM"),
    ("CCn1c(-c2cccnc2[C@H](C)OC)c2c3cc(ccc31)-c1cc(O)cc(c1)C[C@H](NC(=O)[C@H](C(C)C)N(C)C(=O)CN(C)C(=O)[C@H]1CN1CC1(C)COC1)C(=O)N1CCC[C@H](N1)C(=O)OCC(C)(C)C2 (stereo partly drawn) [Example 279]", "KRAS G12S (Homo sapiens, UniProt P01116+P62937, G12S)", "0.01 to 0.1 µM"),
    ("CCn1c(-c2cccnc2[C@H](C)OC)c2c3cc(ccc31)-c1cc(O)cc(c1)C[C@H](NC(=O)[C@H](C(C)C)N(C)C(=O)CN(C)C(=O)[C@H]1N[C@H]1C(C)C)C(=O)N1CCC[C@H](N1)C(=O)OCC(C)(C)C2 [Example 265]", "KRAS G12S (Homo sapiens, UniProt P01116+P62937, G12S)", "0.01 to 0.1 µM"),
    ("CCn1c(-c2cccnc2[C@H](C)OC)c2c3cc(ccc31)-c1cc(O)cc(c1)C[C@H](NC(=O)[C@H](C(C)C)N(C)C(=O)[C@H]1CCCN1C(=O)[C@H]1CN1)C(=O)N1CCC[C@H](N1)C(=O)OCC(C)(C)C2 [Example 152]", "KRAS G12S (Homo sapiens, UniProt P01116+P62937, G12S)", "0.1 to 1 µM"),
    ("CCn1c(-c2cccnc2[C@H](C)OC)c2c3cc(ccc31)-c1cc(O)cc(c1)C[C@H](NC(=O)[C@H](C(C)C)N(C)C(=O)CNC(=O)[C@@H]1CN1)C(=O)N1CCC[C@H](N1)C(=O)OCC(C)(C)C2 [Example 147]", "KRAS G12S (Homo sapiens, UniProt P01116+P62937, G12S)", "0.01 to 0.1 µM"),
    ("CCn1c(-c2cccnc2[C@H](C)OC)c2c3cc(ccc31)-c1cc(cc(C(F)F)c1)C[C@H](NC(=O)[C@H](C1CCCC1)N(C)C(=O)CN(C)C(=O)[C@@H]1N[C@@H]1C1CC1)C(=O)N1CCC[C@H](N1)C(=O)OCC(C)(C)C2 [Example 320]", "KRAS G12S (Homo sapiens, UniProt P01116+P62937, G12S)", "1 to 10 µM"),
    ("CCn1c(-c2cccnc2[C@H](C)OC)c2c3cc(ccc31)-c1cc(O)cc(c1)C[C@H](NC(=O)[C@H](C(C)C)N(C)C(=O)[C@H]1CCN1C(=O)[C@H]1CN1)C(=O)N1CCC[C@H](N1)C(=O)OCC(C)(C)C2 [Example 158]", "KRAS G12S (Homo sapiens, UniProt P01116+P62937, G12S)", "0.01 to 0.1 µM"),
    ("CCn1c(-c2cccnc2[C@H](C)OC)c2c3cc(ccc31)-c1cc(O)cc(c1)C[C@H](NC(=O)[C@H](C(C)C)N(C)C(=O)CN(C)C(=O)C1CN1CCOC)C(=O)N1CCC[C@H](N1)C(=O)OCC(C)(C)C2 (stereo partly drawn) [Example 90]", "KRAS G12S (Homo sapiens, UniProt P01116+P62937, G12S)", "0.01 to 0.1 µM"),
]
